# experimentalSystem: IFN-αI (human, UniProt P01571 24-189)
# testName: cell-based or functional assay
The entries below are paired with their reported IC50 (pM), ISRE assay.
Report only the number, with the unit pM understood.

Sample records with IC50 (pM), ISRE assay:
IFWM3332 (antibody, IgG1, V domains shown) VH: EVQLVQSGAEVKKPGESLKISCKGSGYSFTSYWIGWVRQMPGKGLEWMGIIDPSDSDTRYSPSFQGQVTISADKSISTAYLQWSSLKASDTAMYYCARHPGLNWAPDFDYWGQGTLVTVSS VL: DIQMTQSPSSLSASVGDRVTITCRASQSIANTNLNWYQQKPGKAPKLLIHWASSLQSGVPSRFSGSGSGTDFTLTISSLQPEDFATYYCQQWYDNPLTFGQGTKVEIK | 893
IFWM3328 (antibody, IgG1, V domains shown) VH: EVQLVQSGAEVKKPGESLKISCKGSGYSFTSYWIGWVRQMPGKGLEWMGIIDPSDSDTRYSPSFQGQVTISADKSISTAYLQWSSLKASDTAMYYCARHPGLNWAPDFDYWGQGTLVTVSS VL: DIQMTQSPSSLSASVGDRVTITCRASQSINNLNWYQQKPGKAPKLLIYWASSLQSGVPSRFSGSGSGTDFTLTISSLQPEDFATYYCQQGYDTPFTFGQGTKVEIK | 2000
IFWM3310 (antibody, IgG1, V domains shown) VH: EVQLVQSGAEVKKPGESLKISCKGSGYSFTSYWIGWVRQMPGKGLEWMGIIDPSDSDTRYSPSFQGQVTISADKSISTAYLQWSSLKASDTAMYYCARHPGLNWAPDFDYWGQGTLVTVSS VL: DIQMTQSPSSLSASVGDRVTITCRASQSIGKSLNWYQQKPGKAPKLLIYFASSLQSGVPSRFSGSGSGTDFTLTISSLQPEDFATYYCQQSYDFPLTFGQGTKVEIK | 258
IFWM3416 (antibody, IgG1, V domains shown) VH: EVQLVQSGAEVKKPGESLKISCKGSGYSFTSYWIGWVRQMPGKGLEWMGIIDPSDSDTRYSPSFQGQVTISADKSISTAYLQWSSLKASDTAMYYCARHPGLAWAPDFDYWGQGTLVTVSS VL: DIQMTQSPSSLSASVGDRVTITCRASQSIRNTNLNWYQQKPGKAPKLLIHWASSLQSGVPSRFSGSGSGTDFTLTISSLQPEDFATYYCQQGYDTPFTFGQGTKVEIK | 158

For the next question, use this binder.
I am curious: what IC50 (pM), ISRE assay value has been reported for IFWM3410 (antibody, IgG1, V domains shown) VH: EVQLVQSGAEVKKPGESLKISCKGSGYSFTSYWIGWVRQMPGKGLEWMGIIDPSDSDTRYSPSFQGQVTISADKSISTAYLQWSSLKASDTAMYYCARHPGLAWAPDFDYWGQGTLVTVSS VL: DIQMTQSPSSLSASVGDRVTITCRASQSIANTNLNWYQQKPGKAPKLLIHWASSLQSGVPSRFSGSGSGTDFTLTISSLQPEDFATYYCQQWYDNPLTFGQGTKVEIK ?
183
